EXPERIMENTAL_SYSTEM: hMAO-B (Homo sapiens, UniProt P27338)
Sequence (P27338 whole entry): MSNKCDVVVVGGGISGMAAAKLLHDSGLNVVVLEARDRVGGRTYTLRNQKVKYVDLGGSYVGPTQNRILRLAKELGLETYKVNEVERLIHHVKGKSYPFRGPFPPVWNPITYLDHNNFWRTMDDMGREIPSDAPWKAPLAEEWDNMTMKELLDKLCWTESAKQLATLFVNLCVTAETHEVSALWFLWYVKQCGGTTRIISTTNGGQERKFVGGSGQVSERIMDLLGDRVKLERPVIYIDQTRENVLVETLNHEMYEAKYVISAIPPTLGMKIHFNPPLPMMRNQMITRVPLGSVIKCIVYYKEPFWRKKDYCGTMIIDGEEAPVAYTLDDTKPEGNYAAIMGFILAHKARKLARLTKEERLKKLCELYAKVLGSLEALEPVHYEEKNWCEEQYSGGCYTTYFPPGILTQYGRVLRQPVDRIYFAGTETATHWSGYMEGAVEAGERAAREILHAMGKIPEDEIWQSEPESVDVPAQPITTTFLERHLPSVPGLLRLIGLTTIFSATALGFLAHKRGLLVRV
PROTOCOL_SUMMARY: Inhibition of human recombinant MAO B (Amplex Red assay)
CONDITION_DESCRIPTION: Table 3; bounds assume IC50 against MAO-A is the highest concentration tested (100 μM)
Marks after values point to notes of the source that are not given here.
VALUE_KIND: Ratio, selectivity ratios [IC50(MAO-A)]/[IC50(MAO-B)]

Solved entries:
Give its Ratio, selectivity ratios [IC50(MAO-A)]/[IC50(MAO-B)] value. Item: Cc1ccc(C2=NOC(c3ccc(Cl)cc3)C2)cc1 (centres unmarked) [EMAC II i]
>961^d

Same again, this time with Cc1ccc(C2=NOC(c3ccc(C)cc3)C2)cc1 (racemic) [EMAC II j]
>2436^d

Same again, this time with Cc1ccc(C2=NOC(c3ccc(F)cc3)C2)cc1 (racemic) [EMAC II k]
>312^d

Same again, this time with COc1ccc(C2CC(c3ccc(C)cc3)=NO2)cc1 (racemic) [EMAC II m]
>222^d

Field: next compound
Give its Ratio, selectivity ratios [IC50(MAO-A)]/[IC50(MAO-B)] value. Item: Cc1ccc(C2=NOC(c3ccc(Cl)c(Cl)c3)C2)cc1 (racemic) [EMAC II l]
>8354^d

====

EXPERIMENTAL_SYSTEM: hMAO-B (Homo sapiens)
PROTOCOL_SUMMARY: Inhibition of human recombinant MAO B (Amplex Red assay)
CONDITION_DESCRIPTION: Table 4, single enantiomers; assumes the inactive isoform IC50 is the highest concentration tested (100 μM)
Marks after values point to notes of the source that are not given here.
The entries below come with measured Ratio values attached.

Solved entries:
Give Ratio (hMAO-B (Homo sapiens)) of the following compound: Cc1ccc(C2=NO[C@@H](c3ccc(C)cc3)C2)cc1 [R-(−) EMAC II j]
39 216^b

Same again, this time with Cc1ccc(C2=NO[C@H](c3ccc(C)cc3)C2)cc1 [S-(+) EMAC II j]
3188^b

Same again, this time with Cc1ccc(C2=NO[C@H](c3ccc(F)cc3)C2)cc1 [S-(+) EMAC II k]
2956^b

Same again, this time with COc1ccc([C@H]2CC(c3ccc(C)cc3)=NO2)cc1 [R-(−) EMAC II m]
792.6^b

Same again, this time with Cc1ccc(C2=NO[C@@H](c3ccc(Cl)cc3)C2)cc1 [R-(−) EMAC II i]
6549^b

---
Give Ratio (hMAO-B (Homo sapiens)) of the following compound: Cc1ccc(C2=NO[C@H](c3ccc(Cl)c(Cl)c3)C2)cc1 [S-(+) EMAC II l]
9124

Same again, this time with Cc1ccc(C2=NO[C@@H](c3ccc(Cl)c(Cl)c3)C2)cc1 [R-(−) EMAC II l]
52 910^b

Same again, this time with COc1ccc([C@@H]2CC(c3ccc(C)cc3)=NO2)cc1 [S-(+) EMAC II m]
342.6

Same again, this time with Cc1ccc(C2=NO[C@@H](c3ccc(F)cc3)C2)cc1 [R-(−) EMAC II k]
333.5^b

====

EXPERIMENTAL_SYSTEM: hMAO-B (Homo sapiens)
PROTOCOL_SUMMARY: Inhibition of human recombinant MAO B (Amplex Red assay)
CONDITION_DESCRIPTION: read-out: MAO-B (IC50); Table 4, single enantiomers
pIC50: −log10 of the molar value.
VALUE_KIND: pIC50

Give its pIC50 value. Item: Cc1ccc(C2=NO[C@H](c3ccc(Cl)cc3)C2)cc1 [S-(+) EMAC II i]
< 4.00
